# reported Ki; entries follow
system: human AT1R (Homo sapiens, UniProt P30556)
Sequence (P30556 whole entry): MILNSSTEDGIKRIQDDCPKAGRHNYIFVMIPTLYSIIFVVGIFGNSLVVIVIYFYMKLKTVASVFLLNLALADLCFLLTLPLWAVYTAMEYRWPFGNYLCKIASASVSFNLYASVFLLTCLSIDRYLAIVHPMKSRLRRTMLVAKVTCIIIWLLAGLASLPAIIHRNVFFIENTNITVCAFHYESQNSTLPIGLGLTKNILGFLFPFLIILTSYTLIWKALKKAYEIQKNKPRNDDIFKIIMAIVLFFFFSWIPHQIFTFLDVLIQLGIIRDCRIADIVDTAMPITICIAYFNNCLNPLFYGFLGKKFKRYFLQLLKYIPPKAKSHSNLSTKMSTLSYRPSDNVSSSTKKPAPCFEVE
Write down the numeric answer in nM and omit the unit.

// solved cases for Ki follow
Exam item: Query Ki on human AT1R (Homo sapiens, UniProt P30556) for CCCCOC(=O)NS(=O)(=O)c1sc(CC(C)C)nc1-c1ccc(Cn2ccnc2C(C)(C)O)cc1 [Example 17A]
Marked response: 1000

Exam item: Requested read-out Ki, target or system human AT1R (Homo sapiens, UniProt P30556), entry CCCCOC(=O)NS(=O)(=O)c1ccc(CC(C)C)cc1-c1ccc(Cn2ccnc2-c2nccs2)cc1 [Example 35B]
Marked response: 7000

More entries:
Exam item: Item: CCCCOC(=O)NS(=O)(=O)c1sc(CC(C)C)nc1-c1ccc(Cn2ccnc2C2CC2)cc1 [Example 27] Test system: human AT1R (Homo sapiens, UniProt P30556) Read-out: Ki Value: ?
Marked response: 8000

Exam item: Lookup: Ki / human AT1R (Homo sapiens, UniProt P30556) / CCCCOC(=O)NS(=O)(=O)c1sc(CC(C)C)nc1-c1ccc(Cn2ccnc2C(C)C)cc1 [Example 18]
Marked response: 1000

* * *

# pKi per entry
system: human AT2R (Homo sapiens)
Construct: host or cells: HEK-293
Sequence (P50052 whole entry): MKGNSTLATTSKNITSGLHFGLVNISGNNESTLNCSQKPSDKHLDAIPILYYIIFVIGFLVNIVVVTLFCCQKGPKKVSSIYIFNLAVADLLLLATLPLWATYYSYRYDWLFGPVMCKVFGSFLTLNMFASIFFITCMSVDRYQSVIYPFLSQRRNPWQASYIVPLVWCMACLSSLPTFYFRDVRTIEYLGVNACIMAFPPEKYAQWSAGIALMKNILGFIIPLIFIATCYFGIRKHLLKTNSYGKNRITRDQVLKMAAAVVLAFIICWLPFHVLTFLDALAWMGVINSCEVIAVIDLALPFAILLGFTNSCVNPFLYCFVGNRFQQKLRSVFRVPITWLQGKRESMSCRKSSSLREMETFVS
Format: binding
protocolConditions: HEK-293 cell membranes
# pKi = -log10(concentration in molar units)

Exam item: Notebook: pull reported pKi for human AT2R (Homo sapiens), entry CCCCOC(=O)NS(=O)(=O)c1sc(CC(C)C)cc1-c1ccc(Cn2ccnc2C(C)(C)O)cc1 [Example 40A]
Marked response: 8.02

Exam item: Find the measured pKi: item COC(=O)NS(=O)(=O)c1sc(CC(C)C)nc1-c1ccc(Cn2ccnc2C(C)(C)C)cc1 [Example 3] , target or system human AT2R (Homo sapiens).
Marked response: 7.54

Exam item: Observed pKi on human AT2R (Homo sapiens) for CCCCOC(=O)NS(=O)(=O)c1sc(CC(C)C)nc1-c1ccc(Cn2ccnc2C(C)(C)O)cc1 [Example 17A] , please.
Marked response: 7.92

Here's the next entry for you.
Exam item: pKi of CCCCOC(=O)NS(=O)(=O)c1ccc(CC(C)C)cc1-c1ccc(Cn2ccnc2C(C)C)cc1 [Example 37A] on human AT2R (Homo sapiens)?
Marked response: 8.65

* * *

This section presents compounds with their documented inhibition at 10 min, 10 µM values.
Test system: CYP3A
experimentNotes: CYP450 inhibition assay, pooled human liver microsomes, testosterone substrate
protocolConditions: both, human, pooled human liver microsomes, pH 7.4, probe testosterone, CYP 450 Inhibition CYP3A testosterone, at 10 μM

Example compounds with recorded inhibition at 10 min, 10 µM:
Exam item: inhibition at 10 min, 10 µM for CCCCOC(=O)[N-]S(=O)(=O)c1sc(CC(C)C)cc1-c1ccc(Cn2ccnc2C(C)(C)C)cc1.[K+] [Example 11B] ?
Marked response: 21%

Exam item: Reported inhibition at 10 min, 10 µM, compound COC(=O)[N-]S(=O)(=O)c1ccc(CC(C)C)cc1-c1ccc(Cn2ccnc2C(C)(C)O)cc1.[K+] : ____
Marked response: 10.7%

Exam item: Bench note: what inhibition at 10 min, 10 µM did COC(=O)NS(=O)(=O)c1ccc(CC(C)C)cc1-c1ccc(Cn2ccnc2C(C)(C)C)cc1 show?
Marked response: 14%

Exam item: Value lookup for inhibition at 10 min, 10 µM; key = COC(=O)NS(=O)(=O)c1ccc(CC(C)C)cc1-c1ccc(Cn2ccnc2C(C)(C)F)cc1
Marked response: 18.1%

Exam item: Name the recorded inhibition at 10 min, 10 µM for CCCCOC(=O)NS(=O)(=O)c1sc(CC(C)C)nc1-c1ccc(Cn2ccnc2C(C)(C)C)cc1 .
Marked response: 7.5%

***
Exam item: Fill in the blank: the reported inhibition at 10 min, 10 µM of COC(=O)NS(=O)(=O)c1sc(CC(C)C)nc1-c1ccc(Cn2ccnc2C(C)(C)C)cc1 is ____.
Marked response: 2.7%

Exam item: Looking for the measured inhibition at 10 min, 10 µM of CCCCOC(=O)NS(=O)(=O)c1ccc(CC(C)C)cc1-c1ccc(Cn2ccnc2C(C)(C)F)cc1 , can you help?
Marked response: 8.43%

Data provenance: patent US20230159467A1
